biological target: Kdr (Homo sapiens, UniProt P35968); construct: Kinases are expressed as either kinase domains or full length constructs; made in house; experiment: Kinase inhibition assay (33P transfer), Kdr; format: biochemical; conditions: Table 3; read-out: KDR-1
Sequence (P35968 20-1356, species assumed): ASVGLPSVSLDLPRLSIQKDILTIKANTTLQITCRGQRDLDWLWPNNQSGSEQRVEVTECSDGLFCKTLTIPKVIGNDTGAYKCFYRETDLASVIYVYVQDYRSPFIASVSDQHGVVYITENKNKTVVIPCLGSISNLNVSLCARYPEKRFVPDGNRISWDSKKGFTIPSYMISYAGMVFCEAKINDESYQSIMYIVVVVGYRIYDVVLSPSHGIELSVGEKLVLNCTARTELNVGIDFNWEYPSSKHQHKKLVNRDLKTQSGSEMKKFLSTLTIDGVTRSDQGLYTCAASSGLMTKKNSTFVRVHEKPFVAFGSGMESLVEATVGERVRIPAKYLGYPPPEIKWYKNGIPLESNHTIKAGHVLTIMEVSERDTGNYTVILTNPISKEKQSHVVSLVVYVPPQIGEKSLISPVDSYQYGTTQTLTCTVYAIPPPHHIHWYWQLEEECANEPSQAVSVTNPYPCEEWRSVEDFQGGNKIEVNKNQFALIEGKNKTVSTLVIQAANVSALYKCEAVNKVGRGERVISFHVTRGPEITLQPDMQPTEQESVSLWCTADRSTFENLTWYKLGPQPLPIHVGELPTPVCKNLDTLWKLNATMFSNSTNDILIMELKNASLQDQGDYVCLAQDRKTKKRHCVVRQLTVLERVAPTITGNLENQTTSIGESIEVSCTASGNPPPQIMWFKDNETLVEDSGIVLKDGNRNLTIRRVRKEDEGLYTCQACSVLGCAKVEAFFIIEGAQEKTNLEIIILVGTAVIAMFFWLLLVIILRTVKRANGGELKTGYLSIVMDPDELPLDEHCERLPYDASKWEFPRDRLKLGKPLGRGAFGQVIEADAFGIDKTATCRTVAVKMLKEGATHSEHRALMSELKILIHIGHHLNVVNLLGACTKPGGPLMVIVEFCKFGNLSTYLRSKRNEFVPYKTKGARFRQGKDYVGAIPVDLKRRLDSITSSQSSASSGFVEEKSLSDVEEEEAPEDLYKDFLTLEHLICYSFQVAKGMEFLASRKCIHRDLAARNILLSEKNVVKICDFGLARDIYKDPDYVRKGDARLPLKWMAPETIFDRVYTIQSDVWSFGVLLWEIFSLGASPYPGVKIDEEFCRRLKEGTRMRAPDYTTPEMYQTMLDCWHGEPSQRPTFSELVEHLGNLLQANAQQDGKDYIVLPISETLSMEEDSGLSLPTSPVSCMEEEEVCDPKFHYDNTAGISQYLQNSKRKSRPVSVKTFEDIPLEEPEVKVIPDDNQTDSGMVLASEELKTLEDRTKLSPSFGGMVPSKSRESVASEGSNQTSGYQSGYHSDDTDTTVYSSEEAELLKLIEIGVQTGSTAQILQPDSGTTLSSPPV
pIC50: −log10 of the molar value.
Known pIC50 of a selection of compounds
Reported Endpoint: pIC50

Compound: COc1cc(Nc2ncnc(N[C@H](CO)c3ccccc3)n2)cc(OC)c1OC [Compound 425]
Reported Endpoint: pIC50
Endpoint Value: 4.95 to 5.06

Compound: COc1cc(Nc2ncnc(Nc3ccc(C)c(N)c3)n2)cc(OC)c1OC [Compound 935]
Reported Endpoint: pIC50
Endpoint Value: > 5.98

Compound: COc1cc(Nc2ncnc(-c3ccncc3)n2)cc(OC)c1OC [Compound 42]
Reported Endpoint: pIC50
Endpoint Value: 5.15 to 5.93

Compound: COc1cc(Nc2ncnc(Nc3ccc(C)c(F)c3)n2)cc(OC)c1OC [Compound 300]
Reported Endpoint: pIC50
Endpoint Value: > 5.98

Compound: COc1cc(Nc2ncnc(-c3c(O)n(C)c4ccccc34)n2)cc(OC)c1OC [Compound 465]
Reported Endpoint: pIC50
Endpoint Value: 5.23 to 6.01

Compound: COCCOc1ccc(Nc2ncnc(-n3c(N)nc4ccccc43)n2)cc1OC [Compound 287]
Reported Endpoint: pIC50
Endpoint Value: > 6.01

Compound: COc1ccccc1Nc1nc2ccccc2n1-c1ncnc(Nc2cc(OC)c(OC)c(OC)c2)n1 [Compound 398]
Reported Endpoint: pIC50
Endpoint Value: 5.15 to 5.32

Compound: Fc1cccc(Nc2ncnc(-c3cccs3)n2)c1 [Compound 1073]
Reported Endpoint: pIC50
Endpoint Value: < 4.78

Compound: COc1cc(Nc2ncnc(-c3cccc(Cl)c3)n2)cc(OC)c1OC [Compound 220]
Reported Endpoint: pIC50
Endpoint Value: < 4.92
